These measurements were taken from patent US6344476B1.

Here, each record is paired with measured melting point data.
VALUE KIND: melting point

INSERT INTO assay_data (molecular_string, value_kind, reported_measurement) VALUES
  ('CNC(=O)c1sc(C(C)(C)C)cc1NC(=O)Nc1ccc(C(C)C)cc1', 'melting point', '113 to 120 °C'),
  ('CNC(=O)c1sc(C(C)(C)C)cc1NC(=O)Nc1ccc(F)cc1', 'melting point', '203 to 204 °C'),
  ('COC(=O)c1[nH]c(C(C)(C)C)cc1NC(=O)Nc1ccccc1', 'melting point', '262 to 263 °C (dec.)'),
  ('Cc1ccc(NC(=O)Nc2cc(C(C)(C)C)sc2CNC(=O)CNC(=O)OC(C)(C)C)cc1', 'melting point', '174 to 176 °C'),
  ('COC(=O)c1oc(C(C)(C)C)cc1NC(=O)Nc1cccc(Cl)c1Cl', 'melting point', '195 to 197 °C'),
  ('COC(=O)c1cc(C(C)C)sc1NC(=O)Nc1ccc(C)cc1', 'melting point', '49 to 51 °C'),
  ('CNC(=O)c1[nH]c(C(C)(C)C)cc1NC(=O)Nc1ccc(C)cc1', 'melting point', '164 to 166 °C'),
  ('COC(=O)c1cc(C(C)(C)C)sc1NC(=O)Nc1ccccc1', 'melting point', '80 to 82 °C'),
  ('COC(=O)c1sc(C(C)(C)C)cc1NC(=O)Nc1ccc(C)s1', 'melting point', '118 to 120 °C'),
  ('CNC(=O)c1sc(C(C)(C)C)cc1NC(=O)Nc1ccc(F)c(Cl)c1', 'melting point', '203 to 204 °C'),
  ('COC(=O)c1c(NC(=O)Nc2ccc(C)cc2)cc(C(C)(C)C)n1C', 'melting point', '171 to 172 °C'),
  ('COC(=O)c1cc(C(C)C)sc1NC(=O)Nc1ccccc1', 'melting point', '64 to 65 °C');

----------
Reported melting point values for the following molecules.
VALUE KIND: melting point

INSERT INTO measurements (molecule, value_kind, reported_measurement) VALUES
  ('CCc1ccc(NC(=O)Nc2cc(C(C)(C)C)sc2C(=O)NC)cc1 [Example 23]', 'melting point', '101 to 104 °C'),
  ('COC(=O)c1cc(C(C)(C)C)sc1NC(=O)Nc1ccc(C)cc1 [Example 44]', 'melting point', '109 to 111 °C'),
  ('CNC(=O)c1sc(C(C)(C)C)cc1NC(=O)Nc1ccc(C)c(Cl)c1 [Example 28]', 'melting point', '178 to 179 °C'),
  ('COC(=O)c1sc(C(C)C)cc1NC(=O)Nc1ccccc1 [Example 1]', 'melting point', '108 to 110 °C'),
  ('COC(=O)c1sc(C(C)(C)C)cc1NC(=O)Nc1ccc(F)cc1 [Example 54]', 'melting point', '160 to 162 °C');

----------
List of melting point values.
VALUE KIND: melting point

INSERT INTO measurements (compound, reported_measurement) VALUES
  ('CNC(=O)c1sc(C(C)(C)C)cc1NC(=O)Nc1ccc(C)cc1 [Example 22]', '202 to 204 °C'),
  ('CNC(=O)c1oc(C(C)(C)C)cc1NC(=O)Nc1ccc(F)cc1 [Example 36]', '109 to 111 °C'),
  ('CNC(=O)c1sc(C(C)(C)C)cc1NC(=O)Nc1ccc(C)cc1C [Example 27]', '195 to 196 °C'),
  ('COC(=O)c1[nH]c(C(C)(C)C)cc1NC(=O)Nc1ccc(C)cc1 [Example 38]', '257 to 258 °C'),
  ('CC(=O)NCc1sc(C(C)(C)C)cc1NC(=O)Nc1ccc(C)cc1 [Example 50]', '203 to 205 °C'),
  ('Cc1ccc(NC(=O)Nc2cc(C(C)(C)C)sc2CNC(=O)CN)cc1 [Example 51]', '93 to 96 °C'),
  ('CNC(=O)c1sc(C(C)(C)C)cc1NC(=O)Nc1ccc(C)c(F)c1 [Example 29]', '182 to 183 °C'),
  ('COC(=O)c1oc(C(C)(C)C)cc1NC(=O)Nc1ccc(C)cc1 [Example 32]', '78 to 79 °C'),
  ('COC(=O)c1sc(C(C)(C)C)cc1NC(=O)Nc1cccc(C)c1 [Example 9]', '70 to 72 °C');
